Reported inhibition values are given for each entry in this list.
- tested target: Glucose transporter (Leishmania mexicana)
- protocol text: ST_JUDE_LEISH: Cytotoxicity at 2uM final concentration against transgenic Leishmania Mexicana promastigotes LmGT2 that are glucose transport deficient and complemented with the L. Mexicana glucose transporter 2. Activity is measured by DNA content using SYBR green in vitro
- Assay type: functional
Your answer is read as %, so omit the unit and give the number.

Field: example entries. Status: answers known.
{"molecule": "CO/C(=C\\C=C\\c1cc2cc(Cl)c(Cl)cc2[nH]1)C(=O)NCCCN1CCN(c2cccc(OCC(=O)Nc3cccc(C(=O)c4ccccc4)c3)c2)CC1", "scale unit": "%", "inhibition": 2.69}
{"molecule": "Cc1cccc2nc(-c3ccc(-c4cccc(NC(=O)Nc5ccc6c(c5)OCO6)c4)cc3)[nH]c12", "scale unit": "%", "inhibition": 3.3}
{"molecule": "O=C(Nc1cccc(CN2CCN(Cc3ccc(O)cc3)CC2)c1)c1cc2ccccc2s1", "scale unit": "%", "inhibition": 8.57}
{"molecule": "Cc1nc(-c2cccc(C(=O)NC3CCC(CCN4CCc5ccc(-c6cccnc6)cc5CC4)CC3)c2)no1 (stereo not drawn)", "scale unit": "%", "inhibition": 4.24}
{"molecule": "CCC(CCON1C(N)=NC(N)=NC1(C)C)c1ccc(Cl)cc1 (stereo not drawn)", "scale unit": "%", "inhibition": 2.41}
{"molecule": "CCCNC(=O)Nc1cc2cc(-c3ccc(CN4CCCC4)cc3)ccc2n2c(C)nnc12", "scale unit": "%", "inhibition": -1.87}
{"molecule": "CS(=O)(=O)N1CC2(CCN(CCC(NC(=O)NCc3ccc(Cl)c(Cl)c3)c3ccc(Cl)c(Cl)c3)CC2)c2ccccc21 (stereo not drawn)", "scale unit": "%", "inhibition": -1.75}

Now turn to the next molecule.
*Q* I would be grateful if you could share the reported inhibition for "CC(=O)Nc1nc(C(=O)Nc2ccc(-c3ccc(-c4nc5cc(F)ccc5[nH]4)cc3)cc2)cs1" .
*A* -1.02
